src = ChEMBL document CHEMBL1143537

PROTOCOL_NOTES: Volume of distribution of the compound
Assay type: ADME
REPORTED_CONDITIONS: rat; read-out: Activity

SMILES_STR	UNIT_DESCRIPTOR	Vd
CC(C)Oc1cc(OCCc2ccsc2)cc(C(=O)Nc2ccc(C(=O)O)cn2)c1	L/kg	0.3
